Data origin: patent US20250186614A1

EC90 by entry:
# TEST DESCRIPTION: Example 4: dose response of FKBP constructs 160-255, Ec50, Ec90 and fold change (raw and normalized to mCherry)
# Format: cell-based
# CONDITION: FKBP constructs 160-255; not normalized; read-out: EC90
Express it in nM; write the number only.

>  <MOLECULE>
FKBP-181 (protein, Description of sequence: Construct Name: FKBP-181; Mutation(s): Q72R Q84E A117W V85R DRD M54A D50L) HCPIKSRKGLVLHAHYTGKLEDGTEFDSSLPRNQPFVFSLGTGERIKGWDQGLLGMCEGEKRKLVIPSELGYGERGWPPKIPGGATLVFEVELLKIER

>  <EC90, nM>
14100

$$$$
>  <MOLECULE>
FKBP-240: FKBP13 DRD-AcGFP construct of Table 10 (protein, Description of sequence: Construct Name: FKBP-240; Mutation(s): Q72R Q84E A117W V85R DRD E61Y) HCPIKSRKGDVLHMHYTGKLYDGTEFDSSLPRNQPFVFSLGTGERIKGWDQGLLGMCEGEKRKLVIPSELGYGERGWPPKIPGGATLVFEVELLKIER

>  <EC90, nM>
111

$$$$
>  <MOLECULE>
FKBP-251: combinatorial FKBP13 mutant construct of Table 10 (protein, Description of sequence: Construct Name: FKBP-251; Mutation(s): Q72R Q84E A117W V85R DRD E130F) HCPIKSRKGDVLHMHYTGKLEDGTEFDSSLPRNQPFVFSLGTGERIKGWDQGLLGMCEGEKRKLVIPSELGYGERGWPPKIPGGATLVFFVELLKIER

>  <EC90, nM>
104

$$$$
>  <MOLECULE>
FKBP-171 (protein, Description of sequence: Construct Name: FKBP-171; Mutation(s): Q72R Q84E A117W DRD M54A D50L) HCPIKSRKGLVLHAHYTGKLEDGTEFDSSLPRNQPFVFSLGTGEVIKGWDQGLLGMCEGEKRKLVIPSELGYGERGWPPKIPGGATLVFEVELLKIER

>  <EC90, nM>
8160

$$$$
>  <MOLECULE>
FKBP-241 (protein, Description of sequence: Construct Name: FKBP-241; Mutation(s): Q72R Q84E A117W V85R DRD E61Y M54A) HCPIKSRKGDVLHAHYTGKLYDGTEFDSSLPRNQPFVFSLGTGERIKGWDQGLLGMCEGEKRKLVIPSELGYGERGWPPKIPGGATLVFEVELLKIER

>  <EC90, nM>
221

$$$$
>  <MOLECULE>
FKBP-166 (protein, Description of sequence: Construct Name: FKBP-166; Mutation(s): Q72R S79W Q84E A117W DRD M54A V85R) HCPIKSRKGDVLHAHYTGKLEDGTEFDSSLPRNQPFVFWLGTGERIKGWDQGLLGMCEGEKRKLVIPSELGYGERGWPPKIPGGATLVFEVELLKIER

>  <EC90, nM>
220

$$$$
>  <MOLECULE>
FKBP-172 (protein, Description of sequence: Construct Name: FKBP-172; Mutation(s): Q72R Q84E A117W DRD M54A M96W) HCPIKSRKGDVLHAHYTGKLEDGTEFDSSLPRNQPFVFSLGTGEVIKGWDQGLLGWCEGEKRKLVIPSELGYGERGWPPKIPGGATLVFEVELLKIER

>  <EC90, nM>
1050

$$$$
>  <MOLECULE>
FKBP-238 (protein, Description of sequence: Construct Name: FKBP-238; Mutation(s): Q72R Q84E A117W V85R DRD G113N M54A) HCPIKSRKGDVLHAHYTGKLEDGTEFDSSLPRNQPFVFSLGTGERIKGWDQGLLGMCEGEKRKLVIPSELGYNERGWPPKIPGGATLVFEVELLKIER

>  <EC90, nM>
846

$$$$

I'd like to know its EC90. The molecule in question is FKBP-188 (protein, Description of sequence: Construct Name: FKBP-188; Mutation(s): Q72R Q84E A117W V85R DRD M54A F78S) HCPIKSRKGDVLHAHYTGKLEDGTEFDSSLPRNQPFVSSLGTGERIKGWDQGLLGMCEGEKRKLVIPSELGYGERGWPPKIPGGATLVFEVELLKIER
16600

Next: FKBP-203: FKBP13 DRD-AcGFP construct of Table 10 (protein, Description of sequence: Construct Name: FKBP-203; Mutation(s): Q72R Q84E A117W V85R DRD M54A P75L) HCPIKSRKGDVLHAHYTGKLEDGTEFDSSLPRNQLFVFSLGTGERIKGWDQGLLGMCEGEKRKLVIPSELGYGERGWPPKIPGGATLVFEVELLKIER
657
